// data source = the supplement of paper PMC11061612

Tested on: GR-ST (B-Lymphoblastic Leukemia)
Assay: combination Emax (second highest fraction inhibited in the dose matrix, 72 h); higher = more inhibition; extreme values may be limits of the assay
compounds and their reported combination Emax

>  <compound>
C[C@@H]1COCCN1c1cc(C2([S@](C)(=N)=O)CC2)nc(-c2ccnc3[nH]ccc23)n1 [AZD6738] + C1CC(C1)(C(=O)[O-])C(=O)[O-].N.N.[Pt+2] [Carboplatin] (first compound max 10 µM, 7x7, partner max 10 µM)

>  <combination Emax>
0.747

$$$$
>  <compound>
COc1cccc(OCCCN)c1-c1cc(Nc2cnc(C#N)cn2)n[nH]1 [Prexasertib] + C[C@@H]1COCCN1C2=NC(=NC(=C2)C3(CC3)[S@](=N)(=O)C)C4=C5C=CNC5=NC=C4 [AZD6738] (first compound max 1 µM, 7x7, partner max 10 µM)

>  <combination Emax>
0.829

$$$$
>  <compound>
Cc1c2c(nn1C)CSCc1cc(n(C)n1)CSc1cc(c3ccccc3c1)OCCCc1c(C(=O)O)n(C)c3c-2c(Cl)ccc13 [AZD5991] + CCN(CCO)CCCOc1ccc2c(Nc3cc(CC(=O)Nc4cccc(F)c4)[nH]n3)ncnc2c1 [AZD2811] (first compound max 1 µM, 7x7, partner max 1 µM)

>  <combination Emax>
0.336

$$$$
>  <compound>
Cc1c2c(nn1C)CSCc1cc(n(C)n1)CSc1cc(c3ccccc3c1)OCCCc1c(C(=O)O)n(C)c3c-2c(Cl)ccc13 [AZD5991] + C1CN(CCC1(C(=O)N[C@@H](CCO)C2=CC=C(C=C2)Cl)N)C3=NC=NC4=C3C=CN4 [Capivasertib] (first compound max 1 µM, 7x7, partner max 3 µM)

>  <combination Emax>
0.38

$$$$

====

System: COLO-678 (Colorectal Carcinoma)
Experiment: combination Emax (second highest fraction inhibited in the dose matrix, 72 h); higher = more inhibition; extreme values may be limits of the assay
Listed next: entries and their corresponding combination Emax.
reported.metric: combination Emax

>  <compound>
Cc1cc2ncnn2cc1Nc1ncc2c(n1)n(C1CCOCC1)c(=O)n2C [AZD7648] + CN(C)CCCOc1ccc(-c2ccc3ncc4c(c3c2)n(C2CCOCC2)c(=O)n4C)cn1 [AZD0156] (first compound max 10 µM, 7x7, partner max 1 µM)

>  <measured.value>
0.0911

$$$$
>  <compound>
C[C@@H](c1ccc2nccn2c1)n1nnc2ncc(-c3cnn(C)c3)nc21 [Savolitinib] + CC1(C)CCC(CN2CCN(c3ccc(C(=O)NS(=O)(=O)c4ccc(NCC5CCOCC5)c([N+](=O)[O-])c4)c(Oc4cnc5[nH]ccc5c4)c3)CC2)=C(c2ccc(Cl)cc2)C1 [Venetoclax] (first compound max 1 µM, 7x7, partner max 1 µM)

>  <measured.value>
0.146

$$$$

====

Tested on: LN-18 (Glioblastoma)
Assay: combination Emax (second highest fraction inhibited in the dose matrix, 72 h); higher = more inhibition; extreme values may be limits of the assay
Lab note: anything with combination Emax at or over 0.5 counts as 1.0; the rest go in 0.0.

>  <compound>
CN(CCO)CC[C@H](CSc1ccccc1)Nc1ccc(S(=O)(=O)NC(=O)c2ccc(N3CCC([C@@H](O)c4ccccc4-c4ccc(Cl)cc4)CC3)cc2)cc1S(=O)(=O)C(F)(F)F [AZD4320] + C=CCn1c(=O)c2cnc(Nc3ccc(N4CCN(C)CC4)cc3)nc2n1-c1cccc(C(C)(C)O)n1 [AZD1775] (first compound max 1 µM, partner max 1 µM)

>  <category.label>
1.0

$$$$
>  <compound>
COc1cccc(OCCCN)c1-c1cc(Nc2cnc(C#N)cn2)n[nH]1 [Prexasertib] + Cc1cc2ncnn2cc1Nc1ncc2c(n1)n(C1CCOCC1)c(=O)n2C [AZD7648] (first compound max 1 µM, 7x7, partner max 10 µM)

>  <category.label>
1.0

$$$$
>  <compound>
CCc1c2c(nc3ccc(O)cc13)-c1cc3c(c(=O)n1C2)COC(=O)[C@]3(O)CC [SN-38] + CN(C)CCCOc1ccc(-c2ccc3ncc4c(c3c2)n(C2CCOCC2)c(=O)n4C)cn1 [AZD0156] (first compound max 0.3 µM, 7x7, partner max 1 µM)

>  <category.label>
1.0

$$$$
>  <compound>
COc1nnc2ccc(N3CCC(c4ccc(OCCN5CCN(C)C(=O)[C@H]5C)cc4)CC3)nn12 [AZD5153] + C=CCn1c(=O)c2cnc(Nc3ccc(N4CCN(C)CC4)cc3)nc2n1-c1cccc(C(C)(C)O)n1 [AZD1775] (first compound max 1 µM, partner max 1 µM)

>  <category.label>
1.0

$$$$
>  <compound>
COc1cc2c(cc1OCCCCCOc1cc3c(cc1OC)C(=O)N1C=C(C)C[C@H]1C=N3)N=C[C@@H]1CC(C)=CN1C2=O [SG3199] + O=C(c1cc(Cc2n[nH]c(=O)c3ccccc23)ccc1F)N1CCN(C(=O)C2CC2)CC1 [Olaparib] (first compound max 0.001 µM, 7x7, partner max 10 µM)

>  <category.label>
0.0

$$$$
>  <compound>
C[C@@H](c1ccc2nccn2c1)n1nnc2ncc(-c3cnn(C)c3)nc21 [Savolitinib] + Cc1c2c(nn1C)CSCc1cc(n(C)n1)CSc1cc(c3ccccc3c1)OCCCc1c(C(=O)O)n(C)c3c-2c(Cl)ccc13 [AZD5991] (first compound max 1 µM, 7x7, partner max 1 µM)

>  <category.label>
0.0

$$$$
>  <compound>
Cc1c2c(nn1C)CSCc1cc(n(C)n1)CSc1cc(c3ccccc3c1)OCCCc1c(C(=O)O)n(C)c3c-2c(Cl)ccc13 [AZD5991] + CC1(C)CCC(CN2CCN(c3ccc(C(=O)NS(=O)(=O)c4ccc(NCC5CCOCC5)c([N+](=O)[O-])c4)c(Oc4cnc5[nH]ccc5c4)c3)CC2)=C(c2ccc(Cl)cc2)C1 [Venetoclax] (first compound max 1 µM, 7x7, partner max 1 µM)

>  <category.label>
0.0

$$$$

====

System: SW1417 (Colorectal Carcinoma)
Assay: combination Emax (second highest fraction inhibited in the dose matrix, 72 h); higher = more inhibition; extreme values may be limits of the assay
Here, each record is paired with measured combination Emax data.

>  <compound>
CC1(C)CCC(CN2CCN(c3ccc(C(=O)NS(=O)(=O)c4ccc(NCC5CCOCC5)c([N+](=O)[O-])c4)c(Oc4cnc5[nH]ccc5c4)c3)CC2)=C(c2ccc(Cl)cc2)C1 [Venetoclax] + Cn1cnc2c(F)c(Nc3ccc(Br)cc3Cl)c(C(=O)NOCCO)cc21 [Selumetinib] (first compound max 1 µM, 7x7, partner max 3 µM)

>  <combination Emax>
0.489

$$$$
>  <compound>
NC1(C(=O)N[C@@H](CCO)c2ccc(Cl)cc2)CCN(c2ncnc3[nH]ccc23)CC1 [Capivasertib] + CC(=O)c1c(C)c2cnc(Nc3ccc(N4CCNCC4)cn3)nc2n(C2CCCC2)c1=O [Palbociclib] (first compound max 10 µM, 7x7, partner max 10 µM)

>  <combination Emax>
0.269

$$$$

====

Test system: ES8 (Ewing's Sarcoma)
Assay: combination Emax (second highest fraction inhibited in the dose matrix, 72 h); higher = more inhibition; extreme values may be limits of the assay

>  <compound>
COc1cc2c(cc1OCCCCCOc1cc3c(cc1OC)C(=O)N1C=C(C)C[C@H]1C=N3)N=C[C@@H]1CC(C)=CN1C2=O [SG3199] + O=C(c1cc(Cc2n[nH]c(=O)c3ccccc23)ccc1F)N1CCN(C(=O)C2CC2)CC1 [Olaparib] (first compound max 0.001 µM, 7x7, partner max 10 µM)

>  <combination Emax>
0.828

$$$$
>  <compound>
CN(CCO)CC[C@H](CSc1ccccc1)Nc1ccc(S(=O)(=O)NC(=O)c2ccc(N3CCC([C@@H](O)c4ccccc4-c4ccc(Cl)cc4)CC3)cc2)cc1S(=O)(=O)C(F)(F)F [AZD4320] + CS(=O)(=O)CCNCc1ccc(-c2ccc3ncnc(Nc4ccc(OCc5cccc(F)c5)c(Cl)c4)c3c2)o1 [Lapatinib] (first compound max 1 µM, 7x7, partner max 10 µM)

>  <combination Emax>
0.956

$$$$
>  <compound>
Cn1cnc2c(F)c(Nc3ccc(Br)cc3Cl)c(C(=O)NOCCO)cc21 [Selumetinib] + C[C@@H]1COCCN1C2=NC(=NC(=C2)C3(CC3)[S@](=N)(=O)C)C4=C5C=CNC5=NC=C4 [AZD6738] (first compound max 10 µM, 7x7, partner max 10 µM)

>  <combination Emax>
0.674

$$$$

====

Test system: U251 (Low Grade Glioma);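 also: after 72 h of two-drug dosing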
Test: Bliss excess, mean over the matrix (fraction); higher = more synergy
Listed here: items and their measured Bliss excess.
reported.metric: Bliss excess

>  <compound>
COc1cccc(OCCCN)c1-c1cc(Nc2cnc(C#N)cn2)n[nH]1 [Prexasertib] + CCc1c2c(nc3ccc(O)cc13)-c1cc3c(c(=O)n1C2)COC(=O)[C@]3(O)CC [SN-38] (first compound max 1 µM, 7x7, partner max 0.3 µM)

>  <measured.value>
0.0241

$$$$
>  <compound>
Cc1cc2ncnn2cc1Nc1ncc2c(n1)n(C1CCOCC1)c(=O)n2C [AZD7648] + CCN(CCO)CCCOc1ccc2c(Nc3cc(CC(=O)Nc4cccc(F)c4)[nH]n3)ncnc2c1 [AZD2811] (first compound max 10 µM, 7x7, partner max 1 µM)

>  <measured.value>
-0.0046

$$$$
>  <compound>
NC1(C(=O)N[C@@H](CCO)c2ccc(Cl)cc2)CCN(c2ncnc3[nH]ccc23)CC1 [Capivasertib] + CCN(CCO)CCCOc1ccc2c(Nc3cc(CC(=O)Nc4cccc(F)c4)[nH]n3)ncnc2c1 [AZD2811] (first compound max 10 µM, 7x7, partner max 1 µM)

>  <measured.value>
0.0469

$$$$
>  <compound>
CC(=O)c1c(C)c2cnc(Nc3ccc(N4CCNCC4)cn3)nc2n(C2CCCC2)c1=O [Palbociclib] + CN(CC[C@H](CSC1=CC=CC=C1)NC2=C(C=C(C=C2)S(=O)(=O)NC(=O)C3=CC=C(C=C3)N4CCC(CC4)[C@H](C5=CC=CC=C5C6=CC=C(C=C6)Cl)O)S(=O)(=O)C(F)(F)F)CCO [AZD4320] (first compound max 10 µM, 7x7, partner max 1 µM)

>  <measured.value>
-0.0989

$$$$
